Quick reference for IC50 among some compounds
tested.on: Cathepsin D (Cat D) (Homo sapiens (Human))
Sequence (P07339 65-412, species assumed): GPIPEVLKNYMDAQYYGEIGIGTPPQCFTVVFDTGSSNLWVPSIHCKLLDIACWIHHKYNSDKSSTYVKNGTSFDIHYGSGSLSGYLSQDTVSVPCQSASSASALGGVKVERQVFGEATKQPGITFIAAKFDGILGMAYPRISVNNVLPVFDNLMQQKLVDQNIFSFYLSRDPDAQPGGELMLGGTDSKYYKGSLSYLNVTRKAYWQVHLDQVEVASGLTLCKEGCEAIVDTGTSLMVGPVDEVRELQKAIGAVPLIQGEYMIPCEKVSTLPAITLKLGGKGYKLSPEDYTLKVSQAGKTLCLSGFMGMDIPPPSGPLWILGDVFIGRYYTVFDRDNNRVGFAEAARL
assay.explanation: In vitro enzymatic Cathepsin D (Cat D) FRET assay
Assay type: biochemical
condition.summary: read-out: CatD IC50
Provide the reading as a plain figure in µM.

// solved cases for IC50 follow
COC[C@H](C)NC(=O)c1ccc(F)c([C@@]2(C(F)F)N=C(N)O[C@@H]3C[C@@H]32)c1 [Example 428] ... 1520
NC1=N[C@@](c2cc(NC(=O)C3CC(=O)C3)ccc2F)(C(F)F)[C@H]2C[C@H]2O1 [Example 258] ... 117
Cc1cc(C#N)cnc1C(=O)Nc1cc(F)c(Cl)c([C@]2(CF)N=C(N)O[C@H]3C[C@H]32)c1 [Example 139] ... 646

Q: Query the reported IC50 for Cathepsin D (Cat D) (Homo sapiens (Human)); item: Cc1cc(C#N)cnc1C(=O)Nc1ccc(F)c([C@@]2(C(F)F)N=C(N)O[C@@H]3C[C@@H]32)c1 [Example 44]
Result: 376

Q: Query the reported IC50 for Cathepsin D (Cat D) (Homo sapiens (Human)); item: CC(C)Oc1cnc2c(Nc3cc(Cl)c(F)c([C@@]4(CF)N=C(N)O[C@@H]5C[C@@H]54)c3)nccc2n1 [Example 357]
Result: 323

Q: Query the reported IC50 for Cathepsin D (Cat D) (Homo sapiens (Human)); item: N#Cc1cnc2c(Nc3ccc(F)c([C@@]4(C(F)F)N=C(N)O[C@@H]5C[C@@H]54)c3)ncc(F)c2c1 [Example 352]
Result: 192

Q: Query the reported IC50 for Cathepsin D (Cat D) (Homo sapiens (Human)); item: COc1cnc(C(=O)Nc2ccc(Cl)c([C@]3(CF)N=C(N)O[C@H]4C[C@H]43)c2)cn1 [Example 273]
Result: 1970

====

tested.on: Beta Secretase enzyme (BACE) (Homo sapiens (Human))
Sequence (P56817 46-501): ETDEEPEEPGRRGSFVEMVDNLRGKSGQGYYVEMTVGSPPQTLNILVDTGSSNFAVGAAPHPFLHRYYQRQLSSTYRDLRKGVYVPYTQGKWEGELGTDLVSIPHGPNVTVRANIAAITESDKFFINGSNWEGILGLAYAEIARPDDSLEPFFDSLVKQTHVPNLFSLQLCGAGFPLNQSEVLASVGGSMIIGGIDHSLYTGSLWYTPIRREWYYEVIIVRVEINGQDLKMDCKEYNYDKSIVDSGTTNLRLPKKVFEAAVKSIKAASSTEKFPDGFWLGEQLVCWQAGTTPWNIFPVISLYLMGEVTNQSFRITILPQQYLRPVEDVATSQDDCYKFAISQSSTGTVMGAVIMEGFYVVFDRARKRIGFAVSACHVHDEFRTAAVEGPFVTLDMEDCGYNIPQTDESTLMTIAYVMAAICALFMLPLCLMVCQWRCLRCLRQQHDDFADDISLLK
assay.explanation: In vitro enzymatic BACE FRET assay
Format: biochemical
condition.summary: read-out: BACE1 Enzyme assay IC50
pIC50: −log10 of the molar value.
Answer 0 (no) if pIC50 is under 6, and 1 (yes) if it is 6 or more.

# count of solved cases: 8
Cn1cc(C(=O)Nc2ccc(F)c([C@@]3(C(F)F)N=C(N)O[C@@H]4C[C@@H]43)c2)ccc1=O ... 0 (no)
COc1ccc(C(=O)Nc2ccc(F)c([C@]3(CF)N=C(N)O[C@H]4C[C@H]43)c2F)nc1 ... 0 (no)
CC#CCOc1ccc(C(=O)Nc2ccc(F)c([C@@]3(CF)N=C(N)O[C@@H]4C[C@@H]43)c2)nc1 ... 1 (yes)
NC1=N[C@@](c2cc(NC(=O)c3ccc(OCC#CC4CC4)cn3)ccc2F)(C(F)F)[C@H]2C[C@H]2O1 ... 1 (yes)
Cc1cc(C(F)(F)F)cnc1C(=O)Nc1cc(F)c(F)c([C@@]2(CF)N=C(N)O[C@@H]3C[C@@H]32)c1 [Example 51] ... 1 (yes)
C#CCOc1cnc(C(=O)Nc2cc(F)c(F)c([C@@]3(CF)N=C(N)O[C@@H]4C[C@@H]43)c2)cn1 ... 1 (yes)
CC#Cc1cncc(-c2ccc(F)c([C@@]3(CF)N=C(N)O[C@@H]4C[C@@H]43)c2)c1 ... 0 (no)
NC1=N[C@](CF)(c2cc(NC(=O)c3cc4ccccc4cn3)ccc2F)[C@H]2C[C@H]2O1 ... 1 (yes)

Q: Textbook exercise: given the entry "NC1=N[C@](CF)(c2cc(NC(=O)c3ncc(Cl)cc3Cl)ccc2F)[C@H]2C[C@H]2O1" , state whether its pIC50 is greater than or equal to 6.
Result: 1 (yes)

Q: Textbook exercise: given the entry "COc1ccc(C(=O)Nc2ccc(F)c([C@@]3(CF)N=C(N)O[C@@H]4C[C@@H]43)c2F)nc1" , state whether its pIC50 is greater than or equal to 6.
Result: 0 (no)

Q: Textbook exercise: given the entry "Cc1cc(C(F)(F)F)cnc1C(=O)Nc1ccc(F)c([C@@]2(C(F)F)N=C(N)O[C@@H]3C[C@@H]32)c1" , state whether its pIC50 is greater than or equal to 6.
Result: 1 (yes)

Q: Textbook exercise: given the entry "COC[C@@]1(c2cc(NC(=O)c3ccc(Cl)cn3)ccc2F)N=C(N)O[C@H]2C[C@H]21" , state whether its pIC50 is greater than or equal to 6.
Result: 0 (no)

Q: Textbook exercise: given the entry "COc1cc(C#N)cnc1C(=O)Nc1ccc(F)c([C@@]2(C(F)F)N=C(N)O[C@@H]3C[C@@H]32)c1" , state whether its pIC50 is greater than or equal to 6.
Result: 1 (yes)
